Overview of recorded seed-corrected z-score for various sequences
- measurement.description: Identification of proteins required for the processing of the EWS-FLI1 nascent transcript;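 note: robust z of luciferase light less the median z of siRNAs with the same seed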
- cond: TC32 Ewing sarcoma NR0B1-luc vs CMV-luc, 48 h; screened at 20 nM (by protocol)
Whole data set: some 59,000 sequences, median the read-out near -0.00055, cut for the lowest 2% near -2. Only a selection was taken, and the lowest values are over-represented in it overall.
Response field accepts a number only; no unit should be typed.

// solved cases for seed-corrected z-score follow
macromolecule.sequence	measured.property	val
UUUCUUACACCAUGAGACG against INTS4	seed-corrected z-score	-0.309
UGAUGAGAUAGAGCCGUGC against TRIM56	seed-corrected z-score	-0.836

Kindly review the next sequence as well.
Query: Any idea what seed-corrected z-score was measured for UCGCUGAUGAGGAUCUUCC against KCNA10 ?
Result: -0.144

----------
- measurement.description: Identification of proteins required for the processing of the EWS-FLI1 nascent transcript;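 note: robust z of luciferase light less the median z of siRNAs with the same seed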
- cond: TC32 Ewing sarcoma NR0B1-luc vs CMV-luc, 48 h; screened at 20 nM (by protocol)
Whole data set: some 59,000 sequences, median the read-out near -0.00055, cut for the lowest 2% near -2. This excerpt belongs to a sample that is enriched for the lowest values.
measured.property: seed-corrected z-score
Response field accepts a number only; no unit should be typed.

// solved cases for seed-corrected z-score follow
macromolecule.sequence	seed-corrected z-score
UGACUUUACCUCAAAGUUG against PRPF19	-0.0138
GAUAGUUGUAGGGUGUGGC against NDUFA3P3	0.165

Query: Any idea what seed-corrected z-score was measured for UGCGUGUCUUCUUUAACCU against FAM174B ?
Result: -0.0387

Query: Any idea what seed-corrected z-score was measured for AAAAGGAUUGCUGAAAUGG against LOC650293 ?
Result: 0.542

Query: Any idea what seed-corrected z-score was measured for AUGGUUGCGGUAGAAGACG against PHYHIP ?
Result: 0.484

Query: Any idea what seed-corrected z-score was measured for AAGCGGAAAAUCUUGAUGC against SLC26A2 ?
Result: 0.168

----------
- measurement.description: Identification of proteins required for the processing of the EWS-FLI1 nascent transcript;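 note: robust z of luciferase light less the median z of siRNAs with the same seed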
- cond: TC32 Ewing sarcoma NR0B1-luc vs CMV-luc, 48 h; screened at 20 nM (by protocol)
Over roughly 59,000 sequences, the read-out has its median near -0.00055; the lowest 2% begin near -2. The full list was thinned out, with the lowest values kept by preference.
# label = bin(measured seed-corrected z-score), where bins are lo (below -0.3), med (-0.3 to below 0.1), hi (0.1 or more)

Known results for sequences:
macromolecule.sequence	label.value
UUGCUGAACGCGAUGAUCU against PRDX2	hi
UAUGCUCAAAUACCUUUGC against CAT	hi
UAUAUGUCCGGGCGUGUUC against MAPK11	hi

Query: Which category fits this record: UUUGUUCAAGGUUAAUCCC against LRRC27
Result: hi

Query: Which category fits this record: UUUGCUGGUAUUCUUCACC against ACYP2
Result: med

Query: Which category fits this record: UAGACUAACAUUGACUUAG against LOC150519
Result: med

Query: Which category fits this record: UUUAAGCAACCGUCGUUGG against RPS23P8
Result: lo

Query: Which category fits this record: UUAUAACCACUGACUCUCC against MIPEPP3
Result: hi

Query: Which category fits this record: UUCCCGUUCAUUUUGCAAC against ASZ1
Result: med

Query: Which category fits this record: UCUUUAUCAAAUCUGAGUG against FANCC
Result: hi

Query: Which category fits this record: UCGGUAGUAGUAAUCGUGC against PNPLA1
Result: hi

Query: Which category fits this record: UUCUAUGAAAUCGUAAGGC against ME2
Result: med

Query: Which category fits this record: UCCUCUGUAACCACACUCG against GPT2
Result: med

Query: Which category fits this record: AAACUGGUAAUAUGAAUUC against IQSEC2
Result: hi

Query: Which category fits this record: UCAGAUUUCAGACCGCCCA against LINC00668
Result: hi

Query: Which category fits this record: AAUGGAUCCAAAGAGGCUA against KIFC2
Result: hi

Query: Which category fits this record: AUUCUUACCACAACUAUCC against SRP14
Result: lo

Query: Which category fits this record: UUUCCGAAAAUUUAGUGGG against ATAD2
Result: hi

Query: Which category fits this record: UUCCGAAAUGAAAAGGAUC against GMPR2
Result: hi

Query: Which category fits this record: AAUGGUAGUAGCGGAAUCG against SLC12A6
Result: lo

----------
- measurement.description: Identification of proteins required for the processing of the EWS-FLI1 nascent transcript;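 note: robust z of luciferase light less the median z of siRNAs with the same seed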
- cond: TC32 Ewing sarcoma NR0B1-luc vs CMV-luc, 48 h; screened at 20 nM (by protocol)
Whole data set: some 59,000 sequences, median the read-out near -0.00055, cut for the lowest 2% near -2. The full list was thinned out, with the lowest values kept by preference.
Overview of recorded seed-corrected z-score for various sequences
Response field accepts a number only; no unit should be typed.

// solved cases for seed-corrected z-score follow
macromolecule.sequence	seed-corrected z-score
ACUCUUUUUAAGGUGCUUC against DTX1	-3.91
UGUGCGAGAACAUUCCUGC against HIP1R	0.0278
UCCUGGAUACGCAACUUGA against C2orf68	-0.63
UGUCCAGAUAAGGAGACGC against PINLYP	-1.21

Query: Any idea what seed-corrected z-score was measured for AUCUGUCCAAGACAUUUGC against CHRNA7 ?
Result: -1.18

Query: Any idea what seed-corrected z-score was measured for AACCUGGUAAGUCUCGAUG against PPP2R2B ?
Result: -0.459

Query: Any idea what seed-corrected z-score was measured for AAUAGUACCACCAAAGCAC against ELOVL2 ?
Result: -0.0356

Query: Any idea what seed-corrected z-score was measured for AUCGUAACAAGAAAGUUCC against RNF17 ?
Result: 1.39

Query: Any idea what seed-corrected z-score was measured for UUGGGUAAAAUGUCCACUC against SPATS1 ?
Result: -2.28

Query: Any idea what seed-corrected z-score was measured for UGUUUUAACUGCUGUAUCC against RP9 ?
Result: 0.734

Query: Any idea what seed-corrected z-score was measured for UUCUGGAUUAGAAAGGUUC against NKRF ?
Result: 0.43

----------
- measurement.description: Identification of proteins required for the processing of the EWS-FLI1 nascent transcript;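 note: robust z of luciferase light less the median z of siRNAs with the same seed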
- cond: TC32 Ewing sarcoma NR0B1-luc vs CMV-luc (EWS-FLI1 target promoter against control promoter), 48 h; screened at 20 nM (by protocol)
Whole data set: some 59,000 sequences, median the read-out near -0.00055, cut for the lowest 2% near -2. The sample as a whole holds a higher share of the lowest values than the screen did.
# label = bin(measured seed-corrected z-score), where bins are Low (below -0.6), Mid (-0.6 to below 0.07), High (0.07 or more)

Known results for sequences:
macromolecule.sequence	label.value
UAUGUUUCUCGUCUCAACA against DNM1P49	Mid
UGAUAACCCACAUUGAAGG against DEGS1	Mid
UAGUCGUCAAGCACUUGGU against SFTPB	Mid
UUAGUUCGUUCCUCUGUGC against PSMC5	High
UAACUCAUCAACUUUAUCG against CHMP4B	Mid

Query: Which category fits this record: UUCAUAAAGAGGAGGUACC against CLUH
Result: High

Query: Which category fits this record: UUCGAAUAGUAGAAAGUCG against ABCB5
Result: Mid

Query: Which category fits this record: UAGUGUACUCUAGAGCCCG against PLEKHG4
Result: High

Query: Which category fits this record: AAUCUUCUUGUCCUGACUC against PHPT1
Result: Low

Query: Which category fits this record: UAUGCUUUUAGACGAUUGG against ASB14
Result: Mid

Query: Which category fits this record: ACAGCGUACAGCAAACACG against TMEM54
Result: Low

Query: Which category fits this record: UUAGCUGCAUGAUACCAGG against FAM151B
Result: Low

Query: Which category fits this record: UACAUUCUUGGUUUCAACC against LOC729860
Result: High

Query: Which category fits this record: UCAAUGAUCUCGAUGAUGA against PLEC
Result: Mid

Query: Which category fits this record: UUAGAAUCGACCGGCAUUC against KIT
Result: High

Query: Which category fits this record: UCAGGAUCAAAAUCCAGUC against LTV1
Result: Low

Query: Which category fits this record: UAACUGUUUAGCGAUGUCC against TBC1D1
Result: Low

Query: Which category fits this record: UUCUUUACAACUAUCCGAG against FBXO5
Result: High

Query: Which category fits this record: UUAAUAACCUCAGAAAUGG against TCTEX1D1
Result: Mid

Query: Which category fits this record: UCCGAUACCGACAAUAACC against ADAM7
Result: High

Query: Which category fits this record: UCGUUGCUCAGCAUCAAUC against SBNO1
Result: Low

Query: Which category fits this record: AAAGUUGCUGGUGUGCUCC against NUTM1
Result: Low

Query: Which category fits this record: UCGGUAUUCAAACCCUUCG against HIRA
Result: High

Query: Which category fits this record: UUAAUUCUAUUCGAUCAUC against MNS1
Result: Mid
